From: ChEMBL document CHEMBL3352017

experiment: cells; conditions: Homo sapiens, OSC19
Description: Growth inhibition of human OSC19 cells
observed.property: pIC50
# log scale: pIC50 equals minus log10 of the concentration in mol/L

Given the entry "CC1=CC(C)(C)N=C(Nc2nc(C)c3cc(C)cc(C)c3n2)N1" , report its measured pIC50.
5.49

Please do the same for "CCOc1ccc2nc(Nc3nc(=O)cc(-c4ccccc4)[nH]3)nc(C)c2c1" as well.
4.72

Please do the same for "CC1=CC(C)(C)N=C(Nc2nc(C)c3cc(C)ccc3n2)N1" as well.
4.89

Please do the same for "CCOc1ccc2nc(NC3=NC(C)=CC(C)(C)N3)nc(C)c2c1" as well.
4.77
